molecular target: CYP2C19 (Homo sapiens); experiment: Reversible CYP inhibition in human liver microsomes; conditions: human, microsomes, pH 7.4, Percent of Control Activity, CYP 2C19, 200 µM, 30-Minute Preincubation
Sequence (P33261 whole entry): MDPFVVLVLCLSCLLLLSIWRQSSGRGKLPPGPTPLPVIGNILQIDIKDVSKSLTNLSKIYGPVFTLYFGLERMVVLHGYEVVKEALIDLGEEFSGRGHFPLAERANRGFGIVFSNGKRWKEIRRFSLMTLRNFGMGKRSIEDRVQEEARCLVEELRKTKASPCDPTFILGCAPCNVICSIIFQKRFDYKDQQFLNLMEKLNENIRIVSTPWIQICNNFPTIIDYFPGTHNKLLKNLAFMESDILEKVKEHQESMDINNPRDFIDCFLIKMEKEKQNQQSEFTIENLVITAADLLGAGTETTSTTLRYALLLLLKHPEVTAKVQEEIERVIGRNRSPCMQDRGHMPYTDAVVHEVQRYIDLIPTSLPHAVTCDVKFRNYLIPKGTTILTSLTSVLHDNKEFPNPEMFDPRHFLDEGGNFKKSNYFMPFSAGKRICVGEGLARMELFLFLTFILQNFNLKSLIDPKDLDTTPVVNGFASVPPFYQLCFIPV
READOUT_KIND: activity at 200 µM (%)
Form entry: value (%) — number only.

Exercise: What measured activity at 200 µM is associated with `COc1cccc2[nH]c(C(=O)N[C@@H](CC(C)C)C(=O)N[C@@H](C[C@@H]3CCNC3=O)C(=O)CO)cc12` on CYP2C19 (Homo sapiens)?
Solution: 64.9

###

tested on: CYP3A4/5; assay: in vitro; settings: human, microsomes, pH 7.4, Percent of Control Activity, CYP 3A4/5 (mdz), 0.214 µM, Zero-Minute Preincubation
READOUT_KIND: activity at 0.214 µM (%)
Form entry: value (%) — number only.

Exercise: Find the recorded activity at 0.214 µM belonging to `COc1cccc2[nH]c(C(=O)N[C@@H](CC(C)C)C(=O)N[C@@H](C[C@@H]3CCNC3=O)C(=O)CO)cc12` and report it.
Solution: 98.7
